Hey, just so you know, these numbers are from the supplement of paper PMC10567573.

# method: protein stability index of a GFP-peptide fusion (GPS, HEK-293T) (PSI 1-6); higher = more stable;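 further: 24-mer peptide tiles fused after GFP, lentivirally expressed, FACS-sorted into six equal bins by GFP/DsRed ratio, decoded by Illumina sequencing, PSI is the read-weighted mean bin number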
# test.context: treatment: MLN4924 1 uM, 8 h; c terminus: a fixed tail appended
Returns one of 1 (yes) or 0 (no); 1 (yes) when protein stability index is >= 4.

input.sequence: LVGDDAACIAYIRLTQYMDGSGMP [CAMK2D]
label.class: 0 (no)
--
input.sequence: SKAKPKPPKQAQKEQRKQMKGRGQ [TBC1D10A]
label.class: 1 (yes)
--
input.sequence: LVKHKRIHSREKRGDSVKVENPST [ZNF649]
label.class: 1 (yes)
--
input.sequence: KNDVFICGGYNGEVILGDIWKLNL [KLHDC10]
label.class: 0 (no)
--
input.sequence: FKDKSTYIESSTKVYDDMAFRYLS [CLPTM1]
label.class: 0 (no)
--
input.sequence: ENSVTHHEVKCQGKPLAGIYRKRE [KMT5A]
label.class: 1 (yes)
--
input.sequence: DLVTGGELFEDIVAREYYSEADAS [CAMK2B]
label.class: 1 (yes)
--
input.sequence: MENVPKENKVVEKAPVQNEAPALG [BEX5]
label.class: 1 (yes)
--
input.sequence: AHRGRLNIQAGINENDFYDGAWCA [CPXM2]
label.class: 0 (no)
--
input.sequence: SLHVDDRERMELLEEAKKMEMAKF [RIPK4]
label.class: 1 (yes)
--
input.sequence: MKQLQQQQHSDKTSLQGLTGTPLV [ISL2]
label.class: 1 (yes)
--
input.sequence: QAIDHGCEHICVNSDDSYTCECLE [MATN2]
label.class: 1 (yes)
--
input.sequence: HEEEPLGTAGPLALARDLLSETAD [GMPPB]
label.class: 1 (yes)
--
input.sequence: EEKKLRRSQHARKETEFLRLKRTR [STK38L]
label.class: 0 (no)
--
input.sequence: YPPFWDEDQHKLYQQIKAGAYDFP [CAMK2B]
label.class: 0 (no)
--
input.sequence: FKLLDKNSSGDIGKKEIKPFKRFL [SMOC2]
label.class: 0 (no)
--
input.sequence: EEAPELDEAELDYLMDVLVGTQAL [SERTAD1]
label.class: 1 (yes)
--
input.sequence: YVQTVDFMRTDNTCVNLLLEASNY [KLHL13]
label.class: 0 (no)
--
input.sequence: VAPATMGSARSHASSRASENQSPS [ZBTB22]
label.class: 1 (yes)
--
input.sequence: PTVPSAATSQPTPSQHSAHTSSQP [CCDC6]
label.class: 1 (yes)
--
input.sequence: EAFALPDSLLVVLDMDEGTLSFIV [SPSB4]
label.class: 0 (no)
--
input.sequence: KKKAIQEEEERDQALQAKASLTIP [YJU2B]
label.class: 1 (yes)
--
input.sequence: DLPVVQGSSSFSLKGYPSLMRSQS [TRIM29]
label.class: 0 (no)
--
input.sequence: KSDSPTGDVLLDETLKHIKATEPT [GOLPH3L]
label.class: 1 (yes)
--
input.sequence: KKFQSEKAAGSVSKSTQFEYAWCL [FIS1]
label.class: 0 (no)
--
input.sequence: EVKPKDIIHVVKDQLIGQGIIVKD [TENT5D]
label.class: 0 (no)
--
input.sequence: RRTYLGGAAGRSQEPEVPCAAVLP [RSPH3]
label.class: 1 (yes)
--
input.sequence: PSVIQEIHQESGKAPSTDDATWAA [C10orf62]
label.class: 1 (yes)
--
input.sequence: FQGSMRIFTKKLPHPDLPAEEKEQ [USP39]
label.class: 0 (no)
--
input.sequence: ERREALCRQLSESESSLEMDDERY [CCDC6]
label.class: 1 (yes)
--
input.sequence: PSNKAPLLVLCEDHRGRMVKHQCC [EHMT1]
label.class: 0 (no)
--
input.sequence: GLKASLERLQLEYVDVVFANRPDP [KCNAB2]
label.class: 0 (no)
--
input.sequence: RALSDTTEELTVIKSSLKDEYQYS [SLC2A12]
label.class: 1 (yes)
--
input.sequence: DRLTTFQENQARTHVLSKEVQHLR [LRRC45]
label.class: 1 (yes)
--
input.sequence: VTLEASRENSKPRAILKPRKVCVG [PPP2R2B]
label.class: 0 (no)
--
input.sequence: AIPITELTKSQVQDKPYKCTDCGK [ZNF8]
label.class: 1 (yes)
--
input.sequence: KLILTSSASVIFEGVDIKNGTEDL [NSDHL]
label.class: 0 (no)
--
input.sequence: DQTALSLEECLRLLEATCPFGENA [NFE2L1]
label.class: 0 (no)
--
input.sequence: LRKHRELCDVVLVVGAKKIYAHRV [KLHL20]
label.class: 0 (no)
--
input.sequence: LVTQQLPHLMPSNCGLEEKIANLG [S100A14]
label.class: 0 (no)
--
input.sequence: NRLMLAVRDMMANFHLNDLEAPHE [TCF25]
label.class: 0 (no)
--
input.sequence: MGVVSLVFLIIYYLDPSVLSGVSC [ARL6IP1]
label.class: 0 (no)
--
input.sequence: TSQFLSLQCLQALYVDSLFFLRGR [PRAME]
label.class: 0 (no)
--
input.sequence: NQPTRFGKLLLRLPSLRTVSSSVI [NR2F2]
label.class: 0 (no)
--
input.sequence: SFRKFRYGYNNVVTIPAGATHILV [ADAMTS4]
label.class: 0 (no)
--
input.sequence: KQASNLETAIADAEQRGDNALKDA [KRT71]
label.class: 1 (yes)
--
input.sequence: LTDAVAPGNKGRGQRGNTESKTDG [TCF25]
label.class: 1 (yes)
--
input.sequence: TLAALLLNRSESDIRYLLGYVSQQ [FEM1B]
label.class: 0 (no)
--
input.sequence: TMNRRVCVLMLLAAWIGGFLHSLV [OR4A15]
label.class: 0 (no)
--
input.sequence: NSLWKKNKTICKERLQILCFFLLI [NLN]
label.class: 0 (no)

* * *

# method: protein stability index of a GFP-peptide fusion (GPS, HEK-293T) (PSI 1-6); higher = more stable
# test.context: treatment: DMSO; c terminus: a fixed tail appended
Returns one of Y or N; Y when protein stability index is >= 3.

input.sequence: WNITKLSIEYDSEPFGKERDAAIK [CRY1]
label.class: N
--
input.sequence: DFSRCDMDGATLCNCALEELRLVF [ELF3]
label.class: N
--
input.sequence: QEANARERNRMHGLNDALDNLRKV [NEUROD6]
label.class: Y
--
input.sequence: EMFPAAQQLYRHGKAYRFLFGFSA [JAGN1]
label.class: N
--
input.sequence: HSCVQIKNDVFICGGYNGEVILGD [KLHDC10]
label.class: N
--
input.sequence: HALGSPEKVKACQGQYETIERLRS [TBC1D10A]
label.class: Y
--
input.sequence: TQDSARVNPQDGTNTLTRIAENGV [EHMT1]
label.class: Y

* * *

# method: protein stability index of a GFP-peptide fusion (GPS, HEK-293T) (PSI 1-6); higher = more stable
# test.context: treatment: MLN4924 1 uM, 8 h; c terminus: a fixed tail appended
Returns one of rule met or rule not met; rule met when protein stability index is >= 4.

input.sequence: QDDISSSYTTTTTITAPPSRVLQN [SCD]
label.class: rule met
//
input.sequence: HTEVVRDLTFAPDGSLILVSASRD [WSB1]
label.class: rule not met
//
input.sequence: EPPPPGKHSNKKVMRTKSSEKAAN [CPXM2]
label.class: rule met
//
input.sequence: ALSSFREESRFCDAHLVLDGEEIP [GAN]
label.class: rule met
//
input.sequence: AKSRAEAALEEESRQRQSRMEKGE [SMARCE1]
label.class: rule met
//
input.sequence: WAPASEGLKPGPEDGPGKEEAPEL [SERTAD1]
label.class: rule met
//
input.sequence: VEKQGDTIEYLKRHNALLSKRLLA [TMEM192]
label.class: rule not met
//
input.sequence: TAFLLNIQLFEELQELLTHDTKDQ [HMOX1]
label.class: rule not met
//
input.sequence: SVPMNGTSIQWKNHDQNNHNTDRS [EDNRA]
label.class: rule met
//
input.sequence: PELLVGDTQYGSSVDIWAIGCVFA [CDKL4]
label.class: rule not met
//
input.sequence: SEFQAALSRKVAELVHFLLLKYRA [MAGEA3]
label.class: rule not met

* * *

Measured protein stability index by item
# method: protein stability index of a GFP-peptide fusion (GPS, HEK-293T) (PSI 1-6); higher = more stable
# test.context: treatment: MLN4924 1 uM, 8 h; c terminus: a fixed tail appended

input.sequence: PFKAYLDVDITLSSEAFHNYMNAA [RTN3]
protein stability index: 2.71
--
input.sequence: INSRRWCSNLTPNVPNVCRMYCSD [SPACA3]
protein stability index: 2.42
--
input.sequence: QECPPDGRSFREEQCVSFNSHVYN [ADAMTSL2]
protein stability index: 3.91
--
input.sequence: AVNQKIDRESLCGASTSCLLPVQV [PCDHGC5]
protein stability index: 3.26
--
input.sequence: FMHSFEEKYGRAHPVFYQGTYSQA [FAF2]
protein stability index: 2.42
--
input.sequence: ALNFMKGCLKMNPDDRLTCSQLLE [CDKL4]
protein stability index: 2.55
--
input.sequence: LTVLQRLDVWLSGGNDLCVWNRKL [WDR41]
protein stability index: 2.39
--
input.sequence: NLLESKADGIEVSYNACGVLSHIM [ZER1]
protein stability index: 2.31
--
input.sequence: TTMNYPLWSQSYEDSSNQEEEGPS [MAGEA3]
protein stability index: 5.36
--
input.sequence: SSPPQGASPVPESSLTADLLSVDA [SNAP91]
protein stability index: 5.34
--
input.sequence: SGIPEVKCYLNGVKVPGIVRLRTL [CLCN6]
protein stability index: 1.91
--
input.sequence: ALFKANRLEKAVAAAYTFLQRNPK [P3H4]
protein stability index: 2.12
--
input.sequence: ANYIDGYRKQNAYIATQGSLPETF [PTPRD]
protein stability index: 3.13
